Tested on: Staph. epi 222
Protocol notes: standard in vitro agar dilution assay (MIC)
Type: cell-based
Condition: Staph. epi strain 222
Measurement type: MIC (µg/mL)
Numbers only; they are read as µg/mL.

Q: Entry CO/N=C(\C(=O)NC1C(=O)N2C(C(=O)[O-])=C(C[n+]3ccc4[nH]cnc4c3)CSC12)c1csc(N)n1 (stereo not shown) : reported MIC = ?
A: 1

* * *

Tested on: H. influ. C.L.
Protocol notes: standard in vitro agar dilution assay (MIC)
Assay type: cell-based
Condition: H. influ. strain C.L.; read-out: Agar Dilution MIC
Measurement type: MIC (µg/mL)
Numbers only; they are read as µg/mL.

Compound	MIC (µg/mL)
CC(C)(O/N=C(\C(=O)NC1C(=O)N2C(C(=O)[O-])=C(C[n+]3ccc4[nH]cnc4c3)CSC12)c1csc(N)n1)C(=O)O (centres unmarked)	0.03

In the following, a different compound is considered.
Q: Entry CO/N=C(\C(=O)NC1C(=O)N2C(C(=O)[O-])=C(C[n+]3ccc4[nH]c(-c5ccccc5)nc4c3)CSC12)c1csc(N)n1 (centres unmarked) : reported MIC = ?
A: 0.5

* * *

Recorded MIC, one value per entry.
System: Staph. epi 222
Protocol notes: standard in vitro agar dilution assay (MIC)
Type: cell-based
Condition: Staph. epi strain 222
Numbers only; they are read as µg/mL.

Worked examples follow.
Compound	Measured target	Measurement type	Recorded value
CO/N=C(\C(=O)NC1C(=O)N2C(C(=O)[O-])=C(C[n+]3ccc4sc(C)nc4c3)CSC12)c1csc(N)n1 (stereo not shown)	Staph. epi 222	MIC	1
CO/N=C(\C(=O)N[C@@H]1C(=O)N2C(C(=O)[O-])=C(C[n+]3cccc4nc(N)sc43)CS[C@H]12)c1csc(N)n1	Staph. epi 222	MIC	16
CO/N=C(\C(=O)NC1C(=O)N2C(C(=O)[O-])=C(C[n+]3ccc4c(c3)ncn4C)CSC12)c1csc(N)n1 (stereo not shown)	Staph. epi 222	MIC	1
CO/N=C(\C(=O)NC1C(=O)N2C(C(=O)[O-])=C(C[n+]3ccc4[nH]c(C)nc4c3)CSC12)c1csc(N)n1 (stereo not shown)	Staph. epi 222	MIC	1
CC(C)(O/N=C(\C(=O)N[C@@H]1C(=O)N2C(C(=O)[O-])=C(C[n+]3ccccc3)CS[C@H]12)c1csc(N)n1)C(=O)O [Ceftazidime, ceftazidime, reference compound]	Staph. epi 222	MIC	16

Q: Which MIC is reported with Staph. epi 222 for this entry: CO/N=C(\C(=O)NC1C(=O)N2C(C(=O)[O-])=C(C[n+]3ccc4[nH]c(-c5cccs5)nc4c3)CSC12)c1csc(N)n1 (stereo not shown) ?
A: 2

Q: Can you check CO/N=C(\C(=O)NC1C(=O)N2C(C(=O)[O-])=C(C[n+]3ccc4oc(C)nc4c3)CSC12)c1csc(N)n1 (stereo not shown) next?
A: 1

Q: Can you check CO/N=C(\C(=O)NC1C(=O)N2C(C(=O)[O-])=C(C[n+]3cccc4oc(N)nc43)CSC12)c1csc(N)n1 (stereo not shown) next?
A: 1

Q: Can you check CCc1nc2c[n+](CC3=C(C(=O)[O-])N4C(=O)C(NC(=O)/C(=N\OC)c5csc(N)n5)C4SC3)ccc2s1 (stereo not shown) next?
A: 1

Q: Can you check CO/N=C(\C(=O)NC1C(=O)N2C(C(=O)[O-])=C(C[n+]3ccc4c(c3)nc(C)n4C)CSC12)c1csc(N)n1 (stereo not shown) next?
A: 1

Q: Can you check CO/N=C(\C(=O)NC1C(=O)N2C(C(=O)[O-])=C(C[n+]3ccc4nc(C)n(C)c4c3)CSC12)c1csc(N)n1 (stereo not shown) next?
A: 2

Q: Can you check CO/N=C(\C(=O)NC1C(=O)N2C(C(=O)[O-])=C(C[n+]3ccc4nc(C)sc4c3)CSC12)c1csc(N)n1 (stereo not shown) next?
A: 1

Q: Can you check CC(C)(O/N=C(\C(=O)NC1C(=O)N2C(C(=O)[O-])=C(C[n+]3ccc4[nH]cnc4c3)CSC12)c1csc(N)n1)C(=O)O (stereo not shown) next?
A: 16

Where do these numbers come from? They come from patent US4692443A.
